measuredOn: 5-hydroxytryptamine receptor 1A (Homo sapiens)
Sequence (P08908 whole entry): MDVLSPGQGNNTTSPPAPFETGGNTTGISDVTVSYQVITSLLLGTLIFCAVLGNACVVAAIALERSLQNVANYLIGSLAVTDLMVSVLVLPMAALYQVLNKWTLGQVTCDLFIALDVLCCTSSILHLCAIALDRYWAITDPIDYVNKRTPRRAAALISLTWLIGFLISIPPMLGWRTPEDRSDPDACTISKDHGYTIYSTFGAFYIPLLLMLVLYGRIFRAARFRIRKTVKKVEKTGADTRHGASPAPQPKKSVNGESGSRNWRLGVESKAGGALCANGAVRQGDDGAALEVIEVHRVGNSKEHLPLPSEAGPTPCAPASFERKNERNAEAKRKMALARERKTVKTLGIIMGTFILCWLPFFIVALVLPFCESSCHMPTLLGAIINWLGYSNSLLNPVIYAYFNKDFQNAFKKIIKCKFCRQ
Assay type: functional, cell-based
reportedEndpoint: AC50

Below are worked cases with known answers.
• CCc1oc2ccccc2c1C(=O)c1cc(Br)c(O)c(Br)c1 = > 30 µM
• O=C(O)c1ccccc1Nc1cccc(C(F)(F)F)c1 = > 30 µM
• CC(=O)/N=c1/sc(S(N)(=O)=O)nn1C [METHAZOLAMIDE] = > 10 µM
• Nc1nc2c(c(=O)[nH]1)N(C=O)C(CNc1ccc(C(=O)N[C@@H](CCC(=O)O)C(=O)O)cc1)CN2 (some centres undefined) = > 30 µM
• CN(C)c1cc(CNCC(C)(C)C)c(O)c2c1C[C@H]1C[C@H]3[C@H](N(C)C)C(O)=C(C(N)=O)C(=O)[C@@]3(O)C(O)=C1C2=O = > 30 µM

Notebook entry, 5-hydroxytryptamine receptor 1A (Homo sapiens) assay: AC50 of CNCCC=C1c2ccccc2CCc2ccccc21 = ?
> 30 µM

====

measuredOn: UniProt Q14994
Sequence (Q14994 whole entry): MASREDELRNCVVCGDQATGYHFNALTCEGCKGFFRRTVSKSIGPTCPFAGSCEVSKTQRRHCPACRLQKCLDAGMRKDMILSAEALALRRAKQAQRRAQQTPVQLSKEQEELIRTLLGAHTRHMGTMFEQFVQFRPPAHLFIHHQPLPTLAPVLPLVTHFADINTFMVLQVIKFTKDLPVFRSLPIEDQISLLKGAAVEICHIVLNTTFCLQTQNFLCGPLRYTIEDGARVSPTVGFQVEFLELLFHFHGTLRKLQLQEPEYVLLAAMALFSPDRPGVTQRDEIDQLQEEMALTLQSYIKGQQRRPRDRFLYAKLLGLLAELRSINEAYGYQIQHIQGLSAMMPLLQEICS
Format: functional
reportedEndpoint: AC50 (µM)
Provide only the numeric value, understood in µM.

- CNC(=O)c1cc(Oc2ccc(NC(=O)Nc3ccc(Cl)c(C(F)(F)F)c3)c(F)c2)ccn1: 24

// lookup AC50 for CCOc1cc(CC(=O)N[C@@H](CC(C)C)c2ccccc2N2CCCCC2)ccc1C(=O)O [REPAGLINIDE]
5

// lookup AC50 for CC(/C=C1\SC(=S)N(CC(=O)O)C1=O)=C\c1ccccc1
3.6

// lookup AC50 for CC1(C)S[C@@H]2[C@H](NC(=O)[C@H](N)c3ccc(O)cc3)C(=O)N2[C@H]1C(=O)O
15

====

measuredOn: Amine oxidase [flavin-containing] A (Homo sapiens)
Sequence (P21397 whole entry): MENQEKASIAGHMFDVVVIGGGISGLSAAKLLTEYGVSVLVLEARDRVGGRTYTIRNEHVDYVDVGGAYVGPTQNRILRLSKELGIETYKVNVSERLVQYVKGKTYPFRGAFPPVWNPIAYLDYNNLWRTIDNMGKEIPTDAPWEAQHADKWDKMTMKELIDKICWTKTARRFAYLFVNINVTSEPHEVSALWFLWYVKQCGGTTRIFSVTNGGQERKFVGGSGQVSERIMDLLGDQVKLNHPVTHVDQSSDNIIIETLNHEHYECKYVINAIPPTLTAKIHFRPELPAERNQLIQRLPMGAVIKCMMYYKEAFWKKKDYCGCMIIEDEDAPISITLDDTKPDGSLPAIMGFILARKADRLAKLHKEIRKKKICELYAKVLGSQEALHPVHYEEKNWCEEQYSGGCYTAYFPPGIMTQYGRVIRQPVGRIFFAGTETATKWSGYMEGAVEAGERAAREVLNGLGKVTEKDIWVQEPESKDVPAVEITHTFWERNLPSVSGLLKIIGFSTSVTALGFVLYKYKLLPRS
Assay type: functional
reportedEndpoint: AC50

Below are worked cases with known answers.
- CCCC(C)(COC(N)=O)COC(=O)NC(C)C (centres undefined) [CARISOPRODOL]: > 10 µM
- COc1ccc(C(CN(C)C)C2(O)CCCCC2)cc1 (centres undefined) [VENLAFAXINE]: > 10 µM

// lookup AC50 for CC(/C=C1\SC(=S)N(CC(=O)O)C1=O)=C\c1ccccc1
> 30 µM

// lookup AC50 for C#C[C@]1(O)CC[C@H]2[C@@H]3CCc4cc(OC)ccc4[C@H]3CC[C@@]21C [MESTRANOL]
> 30 µM

// lookup AC50 for CC1(C)O[C@@H]2[C@@H](CO[C@@]3(COS(N)(=O)=O)OC(C)(C)O[C@@H]23)O1 [TOPIRAMATE]
> 10 µM

// lookup AC50 for COC(=O)[C@H](c1ccccc1Cl)N1CCc2sccc2C1 [CLOPIDOGREL]
> 30 µM
